So I've got a bunch of binders here, and I need their koff values.
Experimental System: African swine fever virus major capsid protein p72 (p72 capsomer, trimer) (African swine fever virus, UniProt P22776)
Assay Details: SPR
Report as a plain number; the unit s⁻¹ is understood.

Lab note: porcine antibody F5 (class II) (antibody, V domains shown) VH: EEKLVESGGGLVKPGGSLKLSCVGSGSTFSSDAVSWVRQAPGKGLEWLAGIDGDGYGVSTYYADSVKGRFTISRDNSQKTAYLQMNSLRTDDTARYYCAECPMVLLAKCSMEFWGPGVEVVVSS VL: QTVIQEPAMSVSPGGTVTLTCAFSSGSVTTRNYPSWFQQTPGQPPRLLIGRTNNRPTGVPSRFSGVISGNKAALVITGAQANDEATYFCSLYSPDTIIFGSGTHLTVL gave koff of 0.0134

For porcine antibody C9 (class III) (Fab, V domains shown) VH: EVKLVESGGGLVQPGGSLRLSCVGSGFTFSSYEINWVRQAPGKGLEWLAVVSKIGDRTYYADSVRGRLTISRDNSQNTAYLQMNSLRTEDTARYYCVRAWCASTCLPGDIMDLWGPGVGVVVSS VL: QTVIQEPAMSVSPGGTVTLTCAWSSGSVTTSNYPSWFQQTPGQPPRQLIYNTNSRPTGVPRRFSGKISGNKAALTITGAQAEDEADYFCGLYKRSANNIFGGGTHLTVL the binder record lists koff as 0.00893

# koff (binder: porcine antibody H3 (class III) (Fab, V domains shown) VH: QEKLVESGGGLVQPGGSLILSCVGSGFTFITYEINWVRQAPGKGLEWLAVVSKIGDRTYYAHSVRGRLTISRDNSQNTAYLQMNSLRTEDTARYYCVRAWCATTCLPGDIMDLWGPGVGVIV VL: TVIHEPAMSLSPGGTDTLTCAFSSGSITNNNYPSWFQQTPRQPPRLLIYNTNNRPTGVPSRFSGAISGNKAALTITGAQANDEADYFCTLYISIADVIFGGGTHLTVL ) is 0.00494
